Molecular target: human δ opioid receptor (human) (UniProt P41143)
Sequence (P41143 whole entry, stated change not applied): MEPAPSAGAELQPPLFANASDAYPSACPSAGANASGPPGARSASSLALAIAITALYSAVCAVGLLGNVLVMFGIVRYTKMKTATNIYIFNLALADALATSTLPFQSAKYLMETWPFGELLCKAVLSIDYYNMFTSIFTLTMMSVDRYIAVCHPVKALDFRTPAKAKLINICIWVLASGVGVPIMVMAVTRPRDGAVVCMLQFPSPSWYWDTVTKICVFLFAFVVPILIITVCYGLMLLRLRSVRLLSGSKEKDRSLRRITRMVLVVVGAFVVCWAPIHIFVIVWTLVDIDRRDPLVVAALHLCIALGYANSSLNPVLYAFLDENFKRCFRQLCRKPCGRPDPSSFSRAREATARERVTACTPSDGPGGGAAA
Experiment: competition vs [3H]DPDPE, hDOR cell membranes
pKi: −log10 of the molar value. Bridge positions count the residues as written; N and C are the ends. Square brackets hold non-standard residues; d marks the D form. Ends that are not written are not given here. * marks the point of attachment. NH(3,5-(CF3)2-benzyl) = FC(F)(F)c1cc(CN*)cc(C(F)(F)F)c1; dPen = CC(C)(S)[C@@H](N)C(=O)O; Pen = CC(C)(S)[C@H](N)C(=O)O; Nle = CCCC[C@H](N)C(=O)O
result-type: pKi

• Y[dPen]GF[Nle]P[Pen]W-{NH(3,5-(CF3)2-benzyl)} (disulfide 2-7) [Tyr[DPenGlyPheNleProPen]TrpNHBn(CF3)2] = 6.82
